test system: SK-MEL-28 melanoma; assay: NCI tumour cell line growth inhibition, 48 h
Measured attribute: TGI

Below: 6 molecules and their reported TGI.
N#CC(C#N)=C/C=C/c1ccccc1[N+](=O)[O-] : 5.47 µM
OCCN1CCCN(CCCN2c3ccccc3Sc3ccc(C(F)(F)F)cc32)CC1 : 3.03 µM
CCOC(=O)NC(Nc1ccc(C(=O)O)cc1)(C(F)(F)F)C(F)(F)F : > 100 µM
COc1cc2c(c(OC)c1OC)-c1ccc(SC)c(=O)cc1C(CC(=O)Oc1ccccc1F)C2 (stereo not given) : > 7.5 µM
CCCCCCCC(=O)OC[n+]1cccc(-c2c(COC(=O)NC(C)C)c(COC(=O)NC(C)C)c3n2CCC3)c1 : > 100 µM
COc1cc(C(=O)Nc2ccc(-c3nc4ccccc4[nH]3)cc2)cc(OC)c1OC : 28.6 µM

Just so you know, measured TGI for COC1CCC(OS(C)(=O)=O)C(C)O1 (stereo not given) came out at > 10 µM

Just so you know, measured TGI for `COc1cc(CNc2nc3c(NC(C)=O)cc(C(F)(F)F)cc3nc2-c2ccccc2)cc(OC)c1OC` came out at > 100 µM

Just so you know, measured TGI for `CC(C)(C)[C@H]1NC(=O)CN1C(=O)OCc1ccccc1` came out at > 100 µM

Just so you know, measured TGI for `CCOc1ccc(N=Nc2c(-c3ccccc3)nn(C(=O)CC(=O)Nc3ccccc3Cl)c2-c2ccccc2)cc1` came out at > 100 µM

* * *

tested on: DMS 273 small cell lung; test: NCI tumour cell line growth inhibition, 48 h
Measured attribute: TGI

Just so you know, measured TGI for CN(C)CC(=O)N1CCc2c([nH]c3ccccc23)C1c1cccnc1 (stereo unspecified) came out at 1.37 µM

Just so you know, measured TGI for `Cc1c(C(=O)/C=C/c2ccc3c(c2)OCO3)[n+](=O)c2ccccc2n1[O-]` came out at 52.6 µM

Just so you know, measured TGI for `CN(C)CN(C)c1nc(N(C)C)nc(N(C)C)n1` came out at > 100 µM

Just so you know, measured TGI for `O=C(O)c1cc2ccc(Cl)cc2c(O)c1C1=CCCCC1` came out at 68.8 µM

Just so you know, measured TGI for `Cc1ccccc1NC(=O)C(=O)CC(=O)c1sc(-n2nc(-c3ccccc3)cc2-c2ccccc2)nc1C` came out at > 100 µM

Just so you know, measured TGI for NC(=O)C1C(=O)Oc2cccnc21 (stereo unspecified) came out at > 100 µM

Just so you know, measured TGI for `CC1(C)O[C@@H](CCl)C[C@@H](C#N)O1` came out at > 100 µM

Just so you know, measured TGI for CC(C)C(Nc1c2ccccc2[n+](C)c2ccccc12)C(=O)O (stereo unspecified) came out at > 100 µM

* * *

test system: 786-0 renal; assay: NCI tumour cell line growth inhibition, 48 h
Measured attribute: TGI

Below: 5 molecules and their reported TGI.
N#Cc1nc(-c2ccsc2)oc1N : > 100 µM
COC(=O)c1c2c(cc3c1CC1(Cc4cc5c(cc4C1)CCCC5)C3)CCCC2 : > 100 µM
CSC1=C(C)C(/C=N/Nc2ccc([N+](=O)[O-])cc2)=C(C)N(c2ccccc2)S1(=O)=O : > 100 µM
Cc1ccc(/C=C2\CCCC(C(NO)c3ccc(C)cc3)C2=NO)cc1 (stereo unspecified) : > 100 µM
O=C(CCCCCCCCC(=O)N1C(=O)CC(=O)N(c2ccc(Cl)cc2)C1=S)N1C(=O)CC(=O)N(c2ccc(Cl)cc2)C1=S : > 100 µM

Reading of TGI for `Cn1c(COC(=O)NC2CCCCC2)c(COC(=O)NC2CCCCC2)c2ccc3ccccc3c21` with 786-0 renal: > 100 µM

Reading of TGI for C=C1CCC2C(C)(CO)C(O)CCC2(C)C1C/C=C1\C(=O)OCC1O (stereo unspecified) with 786-0 renal: 18.1 µM

Reading of TGI for `N=C(N)c1ccc(N=Nc2c(O)c(C(=O)Nc3ccccc3)cc3ccccc23)cc1` with 786-0 renal: 30.2 µM

Reading of TGI for `Nc1ncnc2c1ncn2CCCNO` with 786-0 renal: > 100 µM

Reading of TGI for CC(C)NC(=O)OCCN=C1c2ccccc2C(Br)C(Br)c2ccccc21 (stereo unspecified) with 786-0 renal: 8.34 µM

Entry source: PubChem BioAssay (NCI)
